These measurements were taken from ChEMBL document CHEMBL3988442.

Listing of recorded Percent Effect by entry.
- System: Wolbachia pipientis
- assayExplanation: Anti-Wolbachia Cell-Based Screen
- Format: functional
- Parameters: scale not given: in the data most compounds retested in dose-response had high values
- conditionLabel: 5 µM
The campaign covered roughly 48,000 compounds. About 13,000 (27%) showed an effect of 50% or more. The list shows a part of the results.
Write the value in % as a bare number.

{"columns": ["compound", "studyTarget", "unitsSymbol", "Percent Effect"],
 "data": [
  ["Cc1cnccc1CN1CC[C@@](C)(O)[C@H](Oc2ccccc2)C1", "Wolbachia pipientis", "%", -3.171]
]}

(Q) Request body: readout Percent Effect, system Wolbachia pipientis, query `Cc1ccc2c(ccn2CC(=O)NC[C@@H]2CCCN3CCCC[C@H]23)c1` . Return the value.
(A) 4.302

(Q) Request body: readout Percent Effect, system Wolbachia pipientis, query CCOCC1c2c(ncn2C)CCN1C(=O)c1cnc(C)cn1.O=C(O)C(F)(F)F (configuration not stated) . Return the value.
(A) 107

(Q) Request body: readout Percent Effect, system Wolbachia pipientis, query `CO[C@@H]1CC[C@@H](N(C)C(=O)c2cn3cc(C)ccc3n2)[C@H]1O` . Return the value.
(A) 56.83

(Q) Request body: readout Percent Effect, system Wolbachia pipientis, query `CC(C)n1cc(CN(C)C[C@@H]2CCCN3CCCC[C@H]23)cn1` . Return the value.
(A) 12.76

(Q) Request body: readout Percent Effect, system Wolbachia pipientis, query `CC(=O)NCCC(=O)NCCCOc1c(C)cccc1C` . Return the value.
(A) 1.2

(Q) Request body: readout Percent Effect, system Wolbachia pipientis, query CCOCC1c2c(ncn2C(C)C)CCN1C(=O)C1CC1 (configuration not stated) . Return the value.
(A) 9.389

(Q) Request body: readout Percent Effect, system Wolbachia pipientis, query `Cc1ccccc1CN1CC[C@@]2(O)CCN(C(=O)C3CCC3)C[C@H]2C1` . Return the value.
(A) -8.444

(Q) Request body: readout Percent Effect, system Wolbachia pipientis, query Cc1cn2cc(C(=O)NC3CCCN(c4ncccn4)C3)ccc2n1 (configuration not stated) . Return the value.
(A) -3.56

(Q) Request body: readout Percent Effect, system Wolbachia pipientis, query CCOCC1c2c(ncn2C(C)C)CCN1C(=O)CC (configuration not stated) . Return the value.
(A) -9.692

(Q) Request body: readout Percent Effect, system Wolbachia pipientis, query CC(CN1CCCCCC1)NCc1nncn1C1CCCCC1 (configuration not stated) . Return the value.
(A) -0.3524

(Q) Request body: readout Percent Effect, system Wolbachia pipientis, query `CN(C)CCCN(C)C1CCN(c2cccc(-c3cscn3)c2)CC1` . Return the value.
(A) 6.682

(Q) Request body: readout Percent Effect, system Wolbachia pipientis, query `Cc1ccc2nc(C(=O)N3CCC(CCn4cccn4)CC3)cn2c1` . Return the value.
(A) -8.837

(Q) Request body: readout Percent Effect, system Wolbachia pipientis, query Cc1cc(NC(=O)CCN(CC2CCOC2)C2CC2)no1 (configuration not stated) . Return the value.
(A) 14.41

(Q) Request body: readout Percent Effect, system Wolbachia pipientis, query `Cc1cnccc1CN1CC[C@@](C)(O)[C@H](Oc2cccc(F)c2)C1` . Return the value.
(A) 113.3

(Q) Request body: readout Percent Effect, system Wolbachia pipientis, query `CCc1ncncc1C(=O)Nc1ccc2ccn(CCN(C)C)c2c1` . Return the value.
(A) -10.28

(Q) Request body: readout Percent Effect, system Wolbachia pipientis, query `Cc1ccc2nc(C(=O)N(C)[C@@H]3CC[C@@H](N4CCCC4)[C@@H]3O)cn2c1` . Return the value.
(A) 129

(Q) Request body: readout Percent Effect, system Wolbachia pipientis, query CCOCC1c2c(ncn2C)CCN1C(=O)c1cscn1 (configuration not stated) . Return the value.
(A) 99.42

(Q) Request body: readout Percent Effect, system Wolbachia pipientis, query COc1cccc(CNC2CCCOc3cc(C)ccc32)n1 (configuration not stated) . Return the value.
(A) -12.28

====

- Test system: Wolbachia pipientis
- assayExplanation: Anti-Wolbachia Cell-Based Screen
- Assay type: functional
- Design: scale not given: in the data most compounds retested in dose-response had high values
- conditionLabel: 5 µM
Screen size: about 48,000 compounds; about 13,000 (27%) showed an effect of 50% or more. Some of the results follow.
Listing of recorded Percent Effect by entry.
Write the value in % as a bare number.

Please review the following examples before continuing.
{"columns": ["compound", "unitsSymbol", "experimentalResult"],
 "data": [
  ["C=C(C)COc1ccccc1NC(=O)N1CCCCC1CO (centres undefined)", "%", -1.415],
  ["C=C(C)COc1ccccc1NC(=O)NC1CCOCC1", "%", -8.907],
  ["CC(C)c1nccn1-c1cncc(C2CCCN(C3CCCC3)C2)n1 (centres undefined)", "%", 108],
  ["COCCNC(=O)c1cc2c(nc1O)CC(c1cccs1)CC2=O (centres undefined)", "%", 7.497],
  ["CCNC(=O)COc1ccccc1N1CCCC(C)C1 (centres undefined)", "%", -0.1998],
  ["CN(C)c1ncc(-c2cc(C(=O)O)n(CC3CC3)c2)cn1", "%", 1.495],
  ["CC(C)c1nccn1-c1cccc(C2CCCN(C3CCCC3)C2)n1 (centres undefined)", "%", 0.08562],
  ["Cc1cccc(C)c1OCCCN1CCC(n2cncn2)CC1", "%", 115.1]
]}

(Q) Percent Effect lookup needed for C=C(C)COc1ccccc1CN1CCCC(C(=O)NCCCO)C1 (centres undefined) , thanks.
(A) 100.8

(Q) Percent Effect lookup needed for `CN(C)c1ncc(-c2cc(C(=O)N3CCCC3)n(CC3CC3)c2)cn1` , thanks.
(A) 121.7

(Q) Percent Effect lookup needed for CC(C(=O)N1CCN(CCOc2ccccc2)CC1)n1cncn1 (centres undefined) , thanks.
(A) -7.881

(Q) Percent Effect lookup needed for `COc1ccc(NC(=O)N2CCN(c3ncccn3)CC2)cn1` , thanks.
(A) 4.438

====

- Tested on: Wolbachia pipientis
- assayExplanation: Anti-Wolbachia Cell-Based Screen
- Format: functional
- Design: scale not given: in the data most compounds retested in dose-response had high values
- conditionLabel: 5 µM
The campaign covered roughly 48,000 compounds. About 13,000 (27%) showed an effect of 50% or more. This is one part of the list.
quantityMeasured: Percent Effect (%)
Write the value in % as a bare number.

{"columns": ["molecule", "experimentalResult"],
 "data": [
  ["CN(C)CCNC(=O)c1ccc(OC2CCN(CC3CC3)CC2)c(Cl)c1", 3.166],
  ["CCc1nc(C2CCCN2C(=O)c2ccoc2C)no1 (configuration not stated)", -2.017],
  ["O=C(N[C@@H]1CN(c2ncccn2)C[C@@H]2CCCO[C@@H]21)c1cnccn1.O=C(O)C(F)(F)F", -32.47]
]}

Okay, next one:
(Q) Percent Effect lookup needed for CCCc1noc(CCC(=O)N2CCCC2c2noc(C3CC3)n2)n1 (configuration not stated) , thanks.
(A) -5.991

====

Listing of recorded Percent Effect by entry.
- System: Wolbachia pipientis
- assayExplanation: Anti-Wolbachia Cell-Based Screen
- Format: functional
- Design: scale not given: in the data most compounds retested in dose-response had high values
- conditionLabel: 5 µM
Hit rate of the full screen: of about 48,000 compounds, about 13,000 (27%) showed an effect of 50% or more. This is one part of the list.
Write the value in % as a bare number.

{"columns": ["compound", "studyTarget", "Percent Effect, %"],
 "data": [
  ["O=S(=O)(Nc1ccc2c(c1)OCCO2)N1CCCCC1", "Wolbachia pipientis", 85.12]
]}

Okay, next one:
(Q) Request body: readout Percent Effect, system Wolbachia pipientis, query CCn1nc(C)c(CN2CCC(c3ccn[nH]3)C2)c1C (stereo not given) . Return the value.
(A) 102.4

====

- Tested on: Wolbachia pipientis
- assayExplanation: Anti-Wolbachia Cell-Based Screen
- Assay type: functional
- Parameters: scale not given: in the data most compounds retested in dose-response had high values
- conditionLabel: 5 µM
Hit rate of the full screen: of about 48,000 compounds, about 13,000 (27%) showed an effect of 50% or more. This is one part of the list.
Listing of recorded Percent Effect by entry.
Write the value in % as a bare number.

{"columns": ["molecule", "experimentalResult"],
 "data": [
  ["CC(C)NC(=O)CS(=O)(=O)c1cc2c(cc1Cl)OCCO2", -3.378]
]}

Okay, next one:
(Q) Percent Effect lookup needed for `COCCNC(=O)c1cc(S(=O)(=O)N2CCCC2)cs1` , thanks.
(A) 6.896

====

- Test system: Wolbachia pipientis
- assayExplanation: Anti-Wolbachia Cell-Based Screen
- Format: functional
- Parameters: scale not given: in the data most compounds retested in dose-response had high values
- conditionLabel: 5 µM
The whole screen tested about 48,000 compounds, of which about 13,000 (27%) showed an effect of 50% or more. The list shows a part of the results.
Listing of recorded Percent Effect by entry.
Write the value in % as a bare number.

Please review the following examples before continuing.
{"columns": ["compound", "quantityMeasured", "experimentalResult"],
 "data": [
  ["CNC(=O)c1ccc(CN(C)C(=O)Nc2nnc(C(C)C)s2)cc1", "Percent Effect", 109.8],
  ["CC(C)c1nnc(NC(=O)NCc2cccnc2NCCN(C)C)s1", "Percent Effect", -11.78],
  ["CNC(=O)C1(Cc2cc(C(C)C)no2)CCN(Cc2ccccn2)C1 (configuration not stated)", "Percent Effect", 108.3],
  ["CC(C)c1nnc(NC(=O)NC2CCOc3ccccc32)s1 (configuration not stated)", "Percent Effect", -12.43],
  ["Cc1cc(N2CCC(N(C)Cc3cc(=O)c(O)co3)CC2)nc(C)n1", "Percent Effect", -0.2819]
]}

(Q) Request body: readout Percent Effect, system Wolbachia pipientis, query CCOC(C)c1noc(CN2CCN(Cc3cccnc3)CC2)n1 (configuration not stated) . Return the value.
(A) -3.385

(Q) Request body: readout Percent Effect, system Wolbachia pipientis, query `CC(C)c1nnc(NC(=O)N(C)Cc2ccncc2)s1` . Return the value.
(A) 78.38
